// data source = ChEMBL document CHEMBL1153939

Molecular target: UniProt O70528
Sequence (O70528 whole entry): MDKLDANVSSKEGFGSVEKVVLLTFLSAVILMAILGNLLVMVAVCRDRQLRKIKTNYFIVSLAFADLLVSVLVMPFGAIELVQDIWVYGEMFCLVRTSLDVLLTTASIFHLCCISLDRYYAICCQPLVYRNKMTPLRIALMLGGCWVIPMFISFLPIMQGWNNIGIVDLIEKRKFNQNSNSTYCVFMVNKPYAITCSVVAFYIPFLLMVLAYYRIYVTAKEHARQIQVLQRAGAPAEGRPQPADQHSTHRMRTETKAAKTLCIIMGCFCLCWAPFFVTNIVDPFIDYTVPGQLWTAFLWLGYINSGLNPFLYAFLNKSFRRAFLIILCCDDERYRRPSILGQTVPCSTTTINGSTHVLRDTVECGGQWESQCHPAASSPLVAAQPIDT
Assay: Displacement of [3H]GR-113808 from 5HT4 receptor in guinea pig striatum membrane at 10 nM
Assay type: cell membranes
endpoint-name: inhibition (%)

[
  {
    "smiles-str": "C=CCCN1CCC(COc2nc3scc(C)c3n3cccc23)CC1",
    "unit-annotation": "%",
    "obs-value": 28
  },
  {
    "smiles-str": "c1cc2c(OC3CCNCC3)nc3ccsc3n2c1",
    "unit-annotation": "%",
    "obs-value": 0
  },
  {
    "smiles-str": "CN1CCC(COc2nc3sccc3n3cccc23)CC1",
    "unit-annotation": "%",
    "obs-value": 20
  },
  {
    "smiles-str": "CCCCN1CCC(COc2nc3ccsc3n3cccc23)CC1",
    "unit-annotation": "%",
    "obs-value": 31
  },
  {
    "smiles-str": "Cc1csc2nc(OCC3CCN(C(C)C)CC3)c3cccn3c12",
    "unit-annotation": "%",
    "obs-value": 30
  }
]
